Just for reference, ChEMBL document CHEMBL3739386 is where these values come from.

Please respond with reported inhibition for every item in the list.
# Target: UniProtKB P41594
# Sequence (P41594 21-1212 limits assumed): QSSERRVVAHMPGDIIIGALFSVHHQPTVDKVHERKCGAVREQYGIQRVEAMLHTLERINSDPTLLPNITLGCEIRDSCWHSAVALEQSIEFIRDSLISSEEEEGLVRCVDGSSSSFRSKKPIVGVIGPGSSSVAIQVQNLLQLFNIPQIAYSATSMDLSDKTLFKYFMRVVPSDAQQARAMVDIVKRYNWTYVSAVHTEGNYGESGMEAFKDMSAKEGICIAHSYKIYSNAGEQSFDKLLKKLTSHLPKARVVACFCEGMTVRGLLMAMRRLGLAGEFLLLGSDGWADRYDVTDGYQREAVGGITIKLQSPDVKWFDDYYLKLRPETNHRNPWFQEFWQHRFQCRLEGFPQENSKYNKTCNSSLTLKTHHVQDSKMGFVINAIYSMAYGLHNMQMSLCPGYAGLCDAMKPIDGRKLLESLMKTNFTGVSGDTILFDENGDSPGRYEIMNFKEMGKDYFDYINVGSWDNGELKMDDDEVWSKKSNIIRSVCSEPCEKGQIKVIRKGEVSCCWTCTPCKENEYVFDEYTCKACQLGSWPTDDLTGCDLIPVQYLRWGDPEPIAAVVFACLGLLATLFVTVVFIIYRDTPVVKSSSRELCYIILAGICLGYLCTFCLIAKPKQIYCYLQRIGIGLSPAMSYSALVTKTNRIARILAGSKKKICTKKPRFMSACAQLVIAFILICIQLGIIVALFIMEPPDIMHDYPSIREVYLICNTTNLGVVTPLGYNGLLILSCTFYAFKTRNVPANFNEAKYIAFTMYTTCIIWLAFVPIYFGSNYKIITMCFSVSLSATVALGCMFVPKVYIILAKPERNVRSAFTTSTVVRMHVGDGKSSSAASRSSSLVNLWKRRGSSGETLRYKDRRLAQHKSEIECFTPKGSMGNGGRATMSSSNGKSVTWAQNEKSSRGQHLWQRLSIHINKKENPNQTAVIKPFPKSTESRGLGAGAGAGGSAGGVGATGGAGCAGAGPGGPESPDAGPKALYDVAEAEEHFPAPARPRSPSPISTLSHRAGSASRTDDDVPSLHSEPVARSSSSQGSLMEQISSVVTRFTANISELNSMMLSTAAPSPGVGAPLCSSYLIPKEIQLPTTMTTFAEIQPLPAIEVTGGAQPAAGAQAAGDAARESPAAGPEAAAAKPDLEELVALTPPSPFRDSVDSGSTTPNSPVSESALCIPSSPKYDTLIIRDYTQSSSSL
# Test Summary: Antagonist activity at mGlu5 receptor (unknown origin) expressed in HEK cells assessed as inhibition of glutamate-induced calcium flux at 1 uM by fluorescence based assay
# Type: functional, cell-based
# Condition: HEK293
One number for each entry, in %.

Known inhibition results, listed for orientation:
# Structure, inhibition [%]
data = [
    ("O=C(Nc1cccnc1)c1cccc(Cl)n1", 19.1),
    ("Cc1cccc(NC(=O)c2nc(Br)cs2)c1", 40.9),
]

// below: inhibition requested for another molecule
Query :: What value of inhibition has been reported for the following molecule? `Cc1cccc(NC(=O)c2nc(C#N)cs2)n1`
Result :: 24.7
